Target: T1, FZD9 cysteine-rich domain (CRD), MYC-tagged and GPI-anchored on CHO cells (human, UniProt O00144 35-161, GPI anchor)
T1 construct: also called FZD9 CRD; CHO-myc-FZDGPI; not shown: MYC tag and GPI anchor signal
T1 sequence: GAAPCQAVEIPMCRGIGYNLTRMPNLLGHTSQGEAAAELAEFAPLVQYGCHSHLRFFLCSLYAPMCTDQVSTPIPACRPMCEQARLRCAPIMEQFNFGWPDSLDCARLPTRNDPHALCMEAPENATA
Assay: flow cytometry, CHO-CRD cells;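 also: flow cytometry of Fab binding to CHO cells overexpressing a Frizzled CRD, with binding defined as median fluorescence over twice that of CHO cells lacking any Frizzled CRD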
experimental_readout: median fluorescence

INSERT INTO assay_data (binder, experimental_readout, experimental_value) VALUES
  ('Fab-2935 (Fab, V domains shown, Fab; also called Fv-2935) VH: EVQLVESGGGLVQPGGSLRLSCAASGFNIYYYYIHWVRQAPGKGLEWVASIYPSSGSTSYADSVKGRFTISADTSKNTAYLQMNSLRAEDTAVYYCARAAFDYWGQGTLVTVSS VL: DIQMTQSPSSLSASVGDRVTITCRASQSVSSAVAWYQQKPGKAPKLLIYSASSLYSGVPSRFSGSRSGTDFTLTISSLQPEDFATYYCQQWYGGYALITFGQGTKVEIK', 'median fluorescence', 3.52),
  ('Fab-2920 (Fab, V domains shown, Fab) VH: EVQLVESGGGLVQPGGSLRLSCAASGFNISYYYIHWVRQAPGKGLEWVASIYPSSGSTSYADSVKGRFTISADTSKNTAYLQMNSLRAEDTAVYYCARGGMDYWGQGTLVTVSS VL: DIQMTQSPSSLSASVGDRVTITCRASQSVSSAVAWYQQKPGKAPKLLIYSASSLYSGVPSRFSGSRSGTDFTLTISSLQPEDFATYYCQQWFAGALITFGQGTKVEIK', 'median fluorescence', 2.89),
  ('Fab-2900 (Fab, V domains shown, Fab; also called Fv-2900) VH: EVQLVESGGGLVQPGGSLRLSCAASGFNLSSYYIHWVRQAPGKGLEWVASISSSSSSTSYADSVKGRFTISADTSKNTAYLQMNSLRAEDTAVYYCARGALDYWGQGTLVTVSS VL: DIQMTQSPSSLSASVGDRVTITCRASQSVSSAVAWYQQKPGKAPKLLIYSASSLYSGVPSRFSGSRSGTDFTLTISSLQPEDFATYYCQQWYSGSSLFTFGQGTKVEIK', 'median fluorescence', 3.01),
  ('Fab-2933 (Fab, V domains shown, Fab; also called Fv-2933) VH: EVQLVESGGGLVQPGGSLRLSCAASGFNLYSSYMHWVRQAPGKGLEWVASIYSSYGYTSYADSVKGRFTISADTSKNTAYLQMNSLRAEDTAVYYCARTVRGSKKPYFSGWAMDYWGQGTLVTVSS VL: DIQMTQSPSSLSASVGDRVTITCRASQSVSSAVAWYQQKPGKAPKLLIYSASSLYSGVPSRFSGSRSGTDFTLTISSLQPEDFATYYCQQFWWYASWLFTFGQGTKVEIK', 'median fluorescence', 143),
  ('Fab-2914 (Fab, V domains shown, Fab; also called Fv-2914) VH: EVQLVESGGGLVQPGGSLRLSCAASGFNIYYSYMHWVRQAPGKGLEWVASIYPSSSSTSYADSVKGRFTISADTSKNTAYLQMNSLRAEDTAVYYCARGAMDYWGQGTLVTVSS VL: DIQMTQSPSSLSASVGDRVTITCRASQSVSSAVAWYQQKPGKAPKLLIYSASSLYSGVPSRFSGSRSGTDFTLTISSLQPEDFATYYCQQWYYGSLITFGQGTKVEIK', 'median fluorescence', 3.82);
